Target: T1, Human PD-L1 expressed on cells (human, UniProt Q9NZQ7 19-290)
T1 construct: One entry used for transfected and natively expressing cells; also called CHO-S hPD-L1; CHO human PD-L1
T1 sequence (Q9NZQ7 19-290 limits assumed): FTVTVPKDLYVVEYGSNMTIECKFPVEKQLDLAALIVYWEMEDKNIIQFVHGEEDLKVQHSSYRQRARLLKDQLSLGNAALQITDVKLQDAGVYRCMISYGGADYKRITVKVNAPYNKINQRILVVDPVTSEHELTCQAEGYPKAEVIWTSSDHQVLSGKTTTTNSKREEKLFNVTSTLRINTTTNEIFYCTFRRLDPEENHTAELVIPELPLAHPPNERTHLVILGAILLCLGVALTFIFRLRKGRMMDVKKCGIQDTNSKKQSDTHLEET
Assay: flow cytometry on CHO hPD-L1 cells, competitor biotin-PD-1-Fc, n = 1
measuredParameter: pIC50
Recall that pIC50 is obtained by taking minus log10 of the concentration measured in molar.

Worked cases, answers included:
>>> experimentalvalue("414B06 (antibody, V domains shown, also called 414606) VH: EVHLVESGGGLVQPGGSLRLSCAASGFTFSSYWMNWVRQAPGKGLEWVANIKQDGSEKYYVDSVKGRFTVSRDNAKNSLYLQMNSLRAEDTAVYYCARVRQWSDYSDYWGQGTPVTVSS VL: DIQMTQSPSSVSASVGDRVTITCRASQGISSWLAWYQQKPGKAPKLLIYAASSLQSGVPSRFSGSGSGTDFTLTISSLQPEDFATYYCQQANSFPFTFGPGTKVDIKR")
9.02
>>> experimentalvalue("416E01 (human IgG1) (antibody, V domains shown) VH: EVQLAESGGGLVQPGGSLRLSCAASGFTFSNYAMSWVRQTPGKGLEWVSAISFSGGTTYYADSVKGRFTISRDNSKNTLYLHMNSLRADDTAVYYCAKDEAPAGATFFDSWGQGTLVTVSS VL: DIQMTQSPSSVSASVGDRVTITCRASQGIRRWLAWYQQKPGKAPKLLISGASSLQSGVPSRFSGSGSGTDFTLIITSLQPEDFATYYCQQANSFPITFGQGTRLEIKR")
9.09

Could you now look at the following binder, please?
Would you mind telling me what pIC50 value was observed for 413G05 (antibody, human IgG1, kappa, V domains shown) VH: QVQLVESGGGLVKPGGSLRLSCAASGFTFSDYYMSWIRQVPGKGLEWVSYISTSGSTIYYADSVKGRFTISRDNAKNSLYLQMNSLRAEDAAVYHCARGITGTNFYHYGLGVWGQGTTVTVSS VL: DIQMTQSPSSVSASVGDRVTITCRASQGINSWLAWYQQKPGKAPKLLIYAASTLQSGVPSRFSGSGSGADFTLTISSLQPEDFATYYCQQVNSFPLTFGGGTKVEIKR ? 8.97

The reported numbers originate from patent US20210380699A1.
